Assay: binders from COS7 lysate, DM2A8 probe, primary screen, torsin A project, cell lysate, small-molecule microarray, fluorescence 635/667 (AID 1065)
Conditions: higher = more signal, COS7 lysate expressing mutant human TOR1A
Let's look at some compounds and their measured composite z-score.
ENDPOINT_LABEL: composite z-score

1. COC(=O)[C@@H]1CCCN1C(=O)[C@@H](C)CO
0.431
2. [N-]=[N+]=Nc1ccccc1C[C@@]1(C(N)=O)N=C(c2ccc(OCCCO)cc2)O[C@@H]1c1ccccc1
0.49
3. C[C@H](c1ccccc1)N1C(=O)[C@H]2[C@@H]3C(=CC[C@H]2C1=O)C(=O)[C@H]1O[C@H]1[C@H]3O
0.34
4. C#CCCCON=C1C[C@@H](O)[C@@H](O)[C@@H]2[C@@H]3C(=O)N(c4cccc(Oc5ccccc5)c4)C(=O)[C@@H]3CC[C@@H]12
-0.666
5. CCCNC(=O)[C@@H]1c2ccccc2C(=O)N(Cc2ccccc2Cl)[C@H]1c1ccc(CO)cc1
0.274
6. O=C1[C@H]2[C@H]3[C@H](O)[C@H](O)CC(=NOC[C@@H](O)COCc4ccco4)[C@@H]3CC[C@H]2C(=O)N1c1ccc(F)cc1F
1.4
7. CC(C)(C)N1CC=CC23O[C@@H]4C=CCCOC(=O)C4[C@H]2C(=O)N(CCCCCO)[C@@H]3C1=O (stereo partly drawn)
1.48
8. CCN1C(=O)[C@H]2[C@H]3[C@H](O)[C@H](O)CC(=NOCc4ccccc4)[C@@H]3CC[C@H]2C1=O
0.441
